organism: Rattus norvegicus; assay: DrugMatrix - Regimen: Daily Repeat; format: toxicity, organism-based, Sprague-Dawley; design: regimen Daily Repeat, gender Male, age 6-8 weeks; details: in vivo, po, 1500 mg/kg, 120 h, tissue Plasma, route oral GAVAGE, dose level High, time 5 day, vehicle .5 % CMC
Could you label it Condition met if measured ALANINE AMINOTRANSFERASE is 60 u/L or higher, and Condition not met otherwise?

Worked examples follow.
{"columns": ["Compound", "Label"],
 "data": [
  ["COC(=O)Nc1nc2ccc([S+]([O-])c3ccccc3)cc2[nH]1 (stereo not given) [OXFENDAZOLE]", "Condition not met"],
  ["CC(C)Oc1ccc2c(=O)c(-c3ccccc3)coc2c1 [IPRIFLAVONE]", "Condition not met"],
  ["O=c1cnn([C@@H]2O[C@H](CO)[C@@H](O)[C@H]2O)c(=O)[nH]1 [6-AZAURIDINE]", "Condition not met"]
]}

Turning now to a further record.
(Q) hey, is ALANINE AMINOTRANSFERASE for this one >= 60 u/L? CC(C)=CCC/C(C)=C/CO [GERANIOL]
(A) Condition met
